Measured Internalization %, MDA-MB-231, 0.25 µg/ml, 2 h accompanies every entry in the list below.
Biological target: T1, human Trop-2 expressed on cell surface (human, UniProt P09758 27-323)
T1 sequence (looked up): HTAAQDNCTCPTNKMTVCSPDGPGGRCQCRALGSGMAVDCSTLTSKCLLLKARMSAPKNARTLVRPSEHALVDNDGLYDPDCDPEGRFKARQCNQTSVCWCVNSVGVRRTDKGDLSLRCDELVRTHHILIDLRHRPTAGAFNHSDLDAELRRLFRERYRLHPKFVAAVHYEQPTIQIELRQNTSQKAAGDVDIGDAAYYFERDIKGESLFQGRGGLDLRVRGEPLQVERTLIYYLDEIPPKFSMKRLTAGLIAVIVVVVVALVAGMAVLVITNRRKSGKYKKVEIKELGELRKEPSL
Test: cell-based or functional assay
Give your result in % as a bare value.

Before answering, review these 2 worked examples.
{"BINDER": "10A9-2 (antibody, V domains shown) VH: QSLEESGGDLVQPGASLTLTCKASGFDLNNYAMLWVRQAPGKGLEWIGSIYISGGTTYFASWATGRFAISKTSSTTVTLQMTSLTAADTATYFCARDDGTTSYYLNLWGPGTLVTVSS VL: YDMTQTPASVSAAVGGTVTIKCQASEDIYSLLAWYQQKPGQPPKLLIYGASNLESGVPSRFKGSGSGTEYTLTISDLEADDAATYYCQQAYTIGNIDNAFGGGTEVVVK", "UNITS": "%", "OBSERVED": 46}
{"BINDER": "5D4 (antibody, V domains shown, Rabbit-derived clone; LEM construct: VH + rabbit IgG CH1 + human IgG1 CH2-CH3) VH: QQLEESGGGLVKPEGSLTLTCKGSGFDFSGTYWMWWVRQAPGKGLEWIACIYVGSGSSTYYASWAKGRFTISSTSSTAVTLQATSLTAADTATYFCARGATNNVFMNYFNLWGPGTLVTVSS VL: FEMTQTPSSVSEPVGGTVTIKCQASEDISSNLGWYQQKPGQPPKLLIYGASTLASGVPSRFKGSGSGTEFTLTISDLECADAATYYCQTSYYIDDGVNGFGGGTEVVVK", "UNITS": "%", "OBSERVED": 56}

In the following, a different binder is considered.
So, 9D7 (antibody, V domains shown, Rabbit-derived clone; LEM construct: VH + rabbit IgG CH1 + human IgG1 CH2-CH3) VH: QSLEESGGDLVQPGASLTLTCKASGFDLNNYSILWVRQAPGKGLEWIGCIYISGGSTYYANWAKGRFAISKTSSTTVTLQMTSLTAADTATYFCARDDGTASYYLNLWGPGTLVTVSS VL: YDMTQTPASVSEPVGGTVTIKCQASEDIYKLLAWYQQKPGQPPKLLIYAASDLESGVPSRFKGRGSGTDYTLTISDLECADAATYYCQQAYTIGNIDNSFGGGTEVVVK ? Its Internalization %, MDA-MB-231, 0.25 µg/ml, 2 h was 42
